Test: Comparative single dose toxicokinetic study in dogs, 30 minutes intravenous infusion
Format: in vivo, beagle dogs
Conditions: both sexes, beagle, dog, plasma, intravenous, 2.5 mg/kg, after infusion of 2.5 mg/kg melflufen, group 4 combined sexes; read-out: mean Cmax as shown in FIGS. 8a and 8b
Attribute Measured: Cmax (nM)

> print(dat)
                              smiles.str  unit  observed.result
1  N[C@@H](Cc1ccc(N(CCCl)CCCl)cc1)C(=O)O    nM             2230

* * *

As shown below, each of these molecules has a reported Tmax value.
Assay: Comparative single dose toxicokinetic study in dogs, 30 minutes intravenous infusion
Type: in vivo, beagle dogs
Details: male, beagle, dog, plasma, iv, 2.5 mg/kg, mean, plasma, labelled analyte; group 3: melflufen-d5 (III) 2.5 mg/kg 30 min infusion; males
Counter-ions that a name gives are not always drawn.
Attribute Measured: Tmax (min)

Molecule	Unit	Observed Result
N[C@@H](Cc1ccc(N(CCCl)CCCl)cc1)C(=O)N[C@@H](Cc1ccc(F)cc1)C(=O)O [desethyl-melflufen]	min	25
[2H]C([2H])([2H])C([2H])([2H])OC(=O)C(Cc1ccc(F)cc1)NC(=O)C(N)Cc1ccc(N(CCCl)CCCl)cc1 (stereo not drawn) [melflufen-d5 (III), hydrochloride]	min	25
N[C@@H](Cc1ccc(N(CCCl)CCCl)cc1)C(=O)O [melphalan]	min	30

* * *

Experiment: Comparative single dose toxicokinetic study in dogs, 30 minutes intravenous infusion
Type: in vivo, beagle dogs
Conditions: both sexes, beagle, dog, plasma, iv, 2.5 mg/kg, mean, plasma, labelled analyte; group 3: melflufen-d5 (III) 2.5 mg/kg 30 min infusion; M + F combined
Attribute Measured: AUC(0-inf) (µM·h)

> print(dat)
                              smiles.str  observed.result
1  N[C@@H](Cc1ccc(N(CCCl)CCCl)cc1)C(=O)O             3.18

* * *

Assay: Comparative single dose toxicokinetic study in dogs, 30 minutes intravenous infusion
Type: in vivo, beagle dogs
Conditions: both sexes, beagle, dog, plasma, iv, 2.5 mg/kg, mean, plasma, labelled analyte; group 4: melflufen 2.5 mg/kg 30 min infusion; M + F combined
Attribute Measured: AUC(0-inf) (µM·h)

> print(dat)
                                   molecule  observed.result
1  N[C@@H](Cc1ccc(N(CCCl)CCCl)cc1)C(=O)O [melphalan]             2.77

* * *

Assay: Comparative single dose toxicokinetic study in dogs, 30 minutes intravenous infusion
Assay type: in vivo, beagle dogs
Conditions: male, beagle, dog, plasma, iv, 2.5 mg/kg, mean, plasma, labelled analyte; group 3: melflufen-d5 (III) 2.5 mg/kg 30 min infusion; males
Counter-ions that a name gives are not always drawn.
Attribute Measured: AUC(0-t) (µM·h)

Molecule	Attribute Measured	Observed Result
[2H]C([2H])([2H])C([2H])([2H])OC(=O)C(Cc1ccc(F)cc1)NC(=O)C(N)Cc1ccc(N(CCCl)CCCl)cc1 (stereo not drawn) [melflufen-d5 (III), hydrochloride]	AUC(0-t)	0.124
N[C@@H](Cc1ccc(N(CCCl)CCCl)cc1)C(=O)N[C@@H](Cc1ccc(F)cc1)C(=O)O [desethyl-melflufen]	AUC(0-t)	0.0655
N[C@@H](Cc1ccc(N(CCCl)CCCl)cc1)C(=O)O [melphalan]	AUC(0-t)	3.28

All values here come from patent US12152087B2.
